Cited source for all entries: PubChem BioAssay

Test: JC-1 mitochondrial signal, unstimulated MM1S myeloma – cell-based, JC-1 fluorescence, 24 h, 100 nL compound, profiling panel (AID 1170); also: test concentration not given here
Details: MM1S mitochondrial potential, higher = more signal
Here the recorded z-score is given for each entry.
Kindly provide the number alone.

The examples below pair each entry with its known result.
{"columns": ["compound", "test.readout", "observed"],
 "data": [
  ["O=c1cccc(-c2cccc3ccccc23)o1", "z-score", -1.07],
  ["C=C[C@H](C)[C@H](OC(=O)Nc1ccc(OC)cc1)c1ccc(O)c2ccccc12", "z-score", -2.07],
  ["CCCC[C@H]1OB(O)C[C@H]2C1=C(COc1ccccc1)C[C@H]1C(=O)N(Cc3ccccc3)C(=O)[C@H]12", "z-score", -0.446],
  ["CCN(CC)c1ccc(N2CC=CC34O[C@@H]5/C=C\\CCC(C)OC(=O)C5[C@H]3C(=O)N(CCCCCCO)[C@@H]4C2=O)cc1 (stereo partly specified)", "z-score", 0.846],
  ["CC1CC/C=C\\[C@H]2OC34C=CCN(c5ccc6ccccc6c5)C(=O)[C@H]3N(CCCCCO)C(=O)[C@@H]4C2C(=O)O1 (stereo partly specified)", "z-score", 0.401]
]}

The recorded z-score for entry CO[C@H]1O[C@H](CO)[C@@H](OC(=O)Nc2ccccc2-c2ccccc2)[C@H](OC(=O)Nc2ccccc2-c2ccccc2)[C@H]1OC(=O)Nc1ccccc1-c1ccccc1 equals 0.116

The recorded z-score for entry CN1C(=O)C2C(C1=O)C1C=C(c3ccc(CO)cc3)C2C(C2CC2)N1Cc1cc2c(cc1Br)OCO2 (stereo unspecified) equals -0.565

The recorded z-score for entry O=C1C2C=CC(C(O)c3cccc4ccccc34)N(n3cnnc3)C2C(=O)N1Cc1ccccc1 (stereo unspecified) equals -0.0153

The recorded z-score for entry O=C1c2ccccc2[C@@]2(Cc3ccccc3N(Cc3ccccc3)C2=O)[C@H](c2ccc(CO)cc2)N1Cc1ccccc1C(F)(F)F equals 0.29

The recorded z-score for entry O=C(CS)NCCCCCNC(=O)[C@H]1C[C@H]2C(=O)N[C@@H](Cc3ccccc3)C(=O)N2[C@H]1c1cccc(OCCO)c1 equals -0.256

The recorded z-score for entry C=C(COC)C(=O)CC[C@H](OC(=O)c1cccnc1)c1ccccc1OCCO equals -2.25

The recorded z-score for entry COC(=O)[C@@]1(Cc2ccccc2)[C@H]2c3cc(C(=O)N(C)C)n(Cc4ccccc4)c3C[C@H]2CN1C(=O)c1ccccc1 equals -1.06

The recorded z-score for entry C=C(C(=O)CC[C@@H](OC(C)=O)c1ccc(OCCO)cc1)C(C)C equals 0.109
